pIC50: −log10 of the molar value.
Multiple publications report pIC50 for UniProtKB P10635; what follows is a combined list.

O=C(N[C@@H]1C[C@H]2CC[C@@H](C1)N2Cc1ccc2cc(F)ccc2c1)c1ccncc1C(=O)N1CCCCC1 : 5.17
CCc1cnc(Oc2ccc(NC(=O)c3ncccc3N)cc2Cl)nc1 : < 4.52
Cc1cc(-c2ccc3c(c2)-c2nnc(Nc4cccc(Cl)c4)n2CCO3)ccn1 : 6.10
COc1ccc([C@H](C)NC(=O)COc2cc(C(F)(F)F)c3c(-c4ccccc4)nn(C)c3n2)cc1 : < 4.70
Cc1ccc2c(NC3CC3)noc2c1-c1ccc2c(N3CCOC[C@@H]3C)nncc2c1 : < 4.60
CC(C)NC[C@@H](C(=O)N1CCN(c2ncnc3c2[C@H](C)CC(=O)N3)CC1)c1ccc(Cl)cc1 : < 4.30
Clc1ccc(CN2CCO[C@H](CCc3ccccc3)C2)cc1 : 4.74
Nc1cc(CN2CCC(C(=O)N3CCC(n4c(=O)n(C5CCCC5)c5cc(F)ccc54)CC3)CC2)ccn1 : < 4.52
O=C(CCC1(c2ccccc2)CCCN(C(=O)Nc2ccc(Cl)cc2)C1)N1CCOCC1 (configuration not stated) : < 5.00
O=C1Nc2ccccc2[C@]12C[C@H]2c1ccc2cn[nH]c2c1 (relative stereo) : < 5.00

[ask] Report measured pIC50; entry is Cc1cc(Nc2ncc(-c3nc(-c4ccccc4)cs3)c(N[C@@H]3C[C@H](CO)[C@@H](O)[C@H]3O)n2)cc(C)n1
[reply] < 4.30

###

Multiple publications report log10 IC50 for Cytochrome P450 2D6 (Homo sapiens); what follows is a combined list.
Lab note - IC50 converted to log10 from values in µM.

See these solved cases before continuing.
Nc1cc(F)c(S(=O)(=O)N2CCC(O)CC2)cc1C(=O)Nc1cc(F)c(F)c(F)c1 : 1.51
C1=CCC(c2ccc3ccccc3c2)CNC1 (stereo not drawn) : 0.82
O=C(Nc1ccc2cnn(S(=O)(=O)c3cccc4ccccc34)c2c1)C1CCNCC1 : 2.54
COc1nc(-c2nc(Nc3cc(C(F)(F)F)ccc3F)n(C)n2)ccc1-n1cnc(C)c1 : 1.20
NC(=O)Nc1cccc(O[C@H]2c3ccccc3C[C@@H]2N2CCC[C@@H](N)C2)c1 : 0.93

[ask] Identify measured log10 IC50 obtained with Cytochrome P450 2D6 (Homo sapiens) for COc1ccc(S(=O)(=O)n2nc(C)c3cc(Cl)ccc32)cc1NC1CCN(C)CC1.O=C(O)C(O)C(O)C(=O)O .
Sequence (P10635 whole entry): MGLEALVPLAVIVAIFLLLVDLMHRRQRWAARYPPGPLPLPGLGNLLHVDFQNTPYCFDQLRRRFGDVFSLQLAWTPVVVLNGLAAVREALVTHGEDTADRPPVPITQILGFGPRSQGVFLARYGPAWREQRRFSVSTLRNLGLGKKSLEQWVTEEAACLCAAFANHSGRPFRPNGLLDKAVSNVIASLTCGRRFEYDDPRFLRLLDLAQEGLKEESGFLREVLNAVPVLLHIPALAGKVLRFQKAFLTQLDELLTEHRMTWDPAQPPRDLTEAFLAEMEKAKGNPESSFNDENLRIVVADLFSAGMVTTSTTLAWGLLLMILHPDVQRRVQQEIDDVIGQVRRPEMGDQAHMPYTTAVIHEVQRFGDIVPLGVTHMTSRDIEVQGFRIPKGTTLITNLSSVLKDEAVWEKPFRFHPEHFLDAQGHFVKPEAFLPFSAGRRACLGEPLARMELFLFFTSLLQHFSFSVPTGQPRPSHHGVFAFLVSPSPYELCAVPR
[reply] 1.16

[ask] Identify measured log10 IC50 obtained with Cytochrome P450 2D6 (Homo sapiens) for CC(C)(O)c1cncc(-n2ncc3c(C(F)(F)F)cccc32)c1 .
[reply] 0.45

[ask] Identify measured log10 IC50 obtained with Cytochrome P450 2D6 (Homo sapiens) for CC(C)C[C@@H](CO)NCC(=O)N1CCc2ccccc2C1C1CCCCC1 (stereo partly drawn) .
[reply] -1.36

[ask] Identify measured log10 IC50 obtained with Cytochrome P450 2D6 (Homo sapiens) for O=C(N[C@@H]1C[C@H]2CC[C@@H](C1)N2Cc1ccc2cc(F)ccc2c1)c1ccccc1C(=O)N1CCCC1 .
[reply] 0.86

[ask] Identify measured log10 IC50 obtained with Cytochrome P450 2D6 (Homo sapiens) for CC(C)c1ccc2c(c1)C(C1CCCCC1)N(C(=O)CNC[C@@H](C)O)CC2 (stereo partly drawn) .
[reply] 0.28
